system: vmhc; test: Microarray gene expression in zebrafish embryos exposed to compound, vmhc; settings: 24 hpf; embryos exposed at BMCGMS20 (PAA equimolar to MAA and EAA); relative to DMSO-exposed control; negative = downregulation, positive = upregulation
# maps each entry to its Fold ratio (FR) vmhc
Answer as a number with no unit attached.

compound	property-label	value-observed
O=C(O)COc1ccccc1 [PAA, phenoxyacetic acid]	Fold ratio (FR) vmhc	-1.102
CC(C1CC1)C(O)(Cn1cncn1)c1ccc(Cl)cc1 (stereo not shown) [CYP, cyproconazole]	Fold ratio (FR) vmhc	-1.759
CCOCC(=O)O [EAA, ethoxyacetic acid]	Fold ratio (FR) vmhc	-4.629

Now, please, on to the next compound.
Q: Give recorded Fold ratio (FR) vmhc with vmhc for the following compound: C[Si](Cn1cncn1)(c1ccc(F)cc1)c1ccc(F)cc1 [FLU, flusilazole]
Ans: -1.784

---

tested on: zebrafish embryos; experiment: Method of the invention: developmental toxicity from expression of the 4 genes in exposed zebrafish embryos; details: all 4 genes (cyp26a1, si:rp71-39b20.7, vmhc, hspb12); 24 hpf microarray; compound versus DMSO control
This listing pairs compounds with measured fold ratio (FR) (either up- or downregulated).

Solved entries:
compound	value-observed
CCOCC(=O)O	> 1.5
C[Si](Cn1cncn1)(c1ccc(F)cc1)c1ccc(F)cc1	> 1.5
O=C(O)COc1ccccc1	< 1.2

Now consider a different compound.
Q: Which fold ratio (FR) (either up- or downregulated) is reported for this compound? CC(C1CC1)C(O)(Cn1cncn1)c1ccc(Cl)cc1 (stereo not shown)
Ans: > 1.5

---

Measured Fold ratio (FR) cyp26a1 by item
system: cyp26a1; assay: Microarray gene expression in zebrafish embryos exposed to compound, cyp26a1; conditions: 24 hpf; embryos exposed at BMCGMS20 (PAA equimolar to MAA and EAA); relative to DMSO-exposed control; negative = downregulation, positive = upregulation
Just the number, please, no unit attached.

Q: Given the entry CC(C1CC1)C(O)(Cn1cncn1)c1ccc(Cl)cc1 (stereo not shown) , report its measured Fold ratio (FR) cyp26a1.
Ans: 3.745

Q: And for `C[Si](Cn1cncn1)(c1ccc(F)cc1)c1ccc(F)cc1` ?
Ans: 3.452

Q: What about this compound? `CCOCC(=O)O`
Ans: 2.648

Q: Follow-up item: `O=C(O)COc1ccccc1`
Ans: -1.009

---

system: hspb12; test: Microarray gene expression in zebrafish embryos exposed to compound, hspb12; conditions: 24 hpf; embryos exposed at BMCGMS20 (PAA equimolar to MAA and EAA); relative to DMSO-exposed control; negative = downregulation, positive = upregulation
Readings of Fold ratio (FR) hspb12 for the listed compounds

Known results for compounds:
compound	Fold ratio (FR) hspb12
O=C(O)COc1ccccc1 [PAA, phenoxyacetic acid]	-1.135
CC(C1CC1)C(O)(Cn1cncn1)c1ccc(Cl)cc1 (stereo not shown) [CYP, cyproconazole]	-1.531
C[Si](Cn1cncn1)(c1ccc(F)cc1)c1ccc(F)cc1 [FLU, flusilazole]	-2.182

Now for the compound whose Fold ratio (FR) hspb12 we want.
Q: # returns recorded Fold ratio (FR) hspb12 (system: hspb12) for CCOCC(=O)O [EAA, ethoxyacetic acid]
Ans: -16.913
